Test: A549 NSCLC cell proliferation inhibitors – ATP luminescence, human non-small cell lung line, primary screen (AID 371);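 note: compound exposure lasted 72 h before the ATP read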
Settings: at 10 µM
Screen size: about 3,300 compounds; about 280 (8.5%) were called active.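 Rule for the calls: active = mean growth inhibition over the two runs of 50% or more; inactive = mean growth inhibition under 50%.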 Only a selection was taken, and actives are over-represented in it overall.
Would you mind answering with one of these outcomes? active, inactive

compound: C1CCC(C(CC2CCCCN2)C2CCCCC2)CC1 (stereo not drawn)
discreteLabel: active
--
compound: CC1(C)CC(=O)C(C=NCCN2CCN(C(=O)C34CC5CC(CC(C5)C3)C4)CC2)=C(O)C1
discreteLabel: inactive

Data request: Assay result, entry COc1ccc(C2N3CC4(C)CN2CC(C)(C3)C4O)cc1OC (stereo not drawn) — outcome?
Data returned: inactive

Data request: Assay result, entry CC12CN3CC(=O)N4CC5(C)CN(CC(C)(C4)C5=O)C(=O)CN(C1)CC(C)(C3)C2=O — outcome?
Data returned: inactive

Data request: Assay result, entry CCOC(=O)C1CCN(c2nc3ccccc3nc2C(C#N)C(=O)OCCOC)CC1 (stereo not drawn) — outcome?
Data returned: inactive

Data request: Assay result, entry CC(=O)O[C@H]1C(=O)[C@]2(C)[C@H]([C@H](OC(=O)c3ccccc3)[C@]3(O)C[C@H](OC(=O)[C@H](O)[C@@H](NC(=O)c4ccccc4)c4ccccc4)C(C)=C1C3(C)C)[C@]1(OC(C)=O)CO[C@@H]1C[C@@H]2O — outcome?
Data returned: active

Data request: Assay result, entry COCCNc1oc(-c2ccc(F)cc2)nc1C#N — outcome?
Data returned: inactive

Data request: Assay result, entry CC[C@]1(O)C[C@@H]2CN(CCc3c([nH]c4ccccc34)[C@@](C(=O)OC)(c3cc4c(cc3OC)N(C)[C@H]3[C@@](O)(C(=O)OC)[C@H](OC(C)=O)[C@]5(CC)C=CCN6CC[C@]43[C@@H]65)C2)C1 — outcome?
Data returned: active
